# runParameters: buffer; pH 7.4; 200.0 µM
observationType: log10 of solubility kinetic (log10 of the value in µg/mL)
# values: log10(solubility kinetic), units µg/mL

Here's what some known entries look like.
> print(dat)
                                   molecule              observationtype  measuredvalue
1         Cc1ccccc1N1CCN(CC(=O)Nc2nccs2)CC1  log10 of solubility kinetic           1.65
2  CCCCC1C2C(=O)N(c3ccc(C)cc3)C(=O)C2ON1c1ccccc1 (centres undefined)  log10 of solubility kinetic           1.66
3  CC1C(=O)N2CCCc3cc(NC(=O)C4CC4)cc1c32 (centres undefined)  log10 of solubility kinetic           1.56

Task: Give its log10 of solubility kinetic value. Item: Cc1nc2ccccc2c(=O)n1-c1cc([N+](=O)[O-])cc([N+](=O)[O-])c1
Output: 1.23

Task: Give its log10 of solubility kinetic value. Item: O=C(NCCCN1CCCC1=O)c1ccc(NS(=O)(=O)c2ccccc2)cc1
Output: 1.77

Task: Give its log10 of solubility kinetic value. Item: CCOC(=O)c1ccc(N2C(=O)C3CCCN3C2=S)cc1 (centres undefined)
Output: 1.61

Task: Give its log10 of solubility kinetic value. Item: COc1ccc(-n2c(-c3ccccc3)nc3ccccc3c2=O)cc1
Output: 0.52

Task: Give its log10 of solubility kinetic value. Item: Cc1ccc(S(=O)(=O)N2CCOCC2)cc1NC(=O)CNCc1ccc(Cl)cc1Cl
Output: 0.73

Task: Give its log10 of solubility kinetic value. Item: CCOc1cc(C(=O)OCC(=O)Nc2cccc(S(=O)(=O)NC3=NCCCCC3)c2)cc(OCC)c1OCC
Output: 1.38

Task: Give its log10 of solubility kinetic value. Item: CCCNC(=S)N1CCC(C(=O)c2ccc(Cl)cc2)CC1
Output: 0.34

Task: Give its log10 of solubility kinetic value. Item: Cc1ccc(NS(=O)(=O)c2ccc3[nH]c(=O)c(=O)[nH]c3c2)cc1Cl
Output: 1.06

Task: Give its log10 of solubility kinetic value. Item: O=S(=O)(c1ccsc1)N1CC=C(c2ccccc2)CC1
Output: 0.58

* * *

Below, each entry is listed alongside its reported solubility kinetic.
# runParameters: buffer; pH 7.4; 200.0 µM

> print(dat)
                                    compound  measuredvalue
 1  O=c1c(Cc2ccc(F)cc2)c(O)ccn1CC1CCCO1 (stereo not drawn)   > 45.5 µg/mL
 2                 O=C(NCC1CC1)Nc1cccc(Cl)c1   > 33.7 µg/mL
 3  CC(NC(=O)C1CCN(C(=O)c2ccc(F)cc2)CC1)c1ccc(S(N)(=O)=O)cc1 (stereo not drawn)     > 65 µg/mL
 4  COc1ccc(-c2cc(C(=O)Nc3cc(C)on3)no2)cc1OC    < 0.2 µg/mL
 5  COc1ccc(-n2c(=S)[nH]c3sc4c(c3c2=O)CCc2ccccc2-4)cc1      1.4 µg/mL
 6  O=C(CN1CCN(Cc2ccc3c(c2)OCO3)CC1)Nc1ccc2[nH]c(=O)[nH]c2c1   > 61.4 µg/mL
 7  CC(C)[C@H](NC(=O)c1ccccc1)C(=O)NCCc1ccccc1     10.3 µg/mL
 8  O=C(O)c1[nH]c2ccc([N+](=O)[O-])cc2c1-c1ccccc1   > 42.3 µg/mL
 9                     Nc1cccnc1Oc1ccc(F)cc1     28.8 µg/mL
10    CC(=O)c1ccc(OCc2ncc(C(F)(F)F)cc2Cl)cc1     23.6 µg/mL

Query compound follows.
Task: Give its solubility kinetic value. Item: CCOC(=O)C1CCN(C(=O)CN2C(=O)NC(C)(c3ccc4cc(OC)ccc4c3)C2=O)CC1 (stereo not drawn)
Output: 15.6 µg/mL
